plate-normalized OD600 growth: recorded values
# Tested on: Escherichia coli BW25113
# ASSAY METHOD TEXT: plate-normalized OD600 growth (mean of duplicates) (OD600 (normalized)); higher = more growth (less inhibition)
# PARTICULARS: temperature: 15°C; 48 h; 10 µM
Over roughly 1,600 compounds, “plate-normalized OD600 growth (mean of duplicates)” has its median near 0.31; the lowest 2% begin near 0.23. Only a selection was taken, and the lowest values are over-represented in it overall.

COMPOUND	plate-normalized OD600 growth
COc1ccc(CNC2C3CC4CC(C3)CC2C4)c(OC)c1 (stereo unspecified)	0.224
CCCn1c(SCCC(=O)O)nc2ccccc21	0.257
Cc1cccc(N2C(=O)CC(N3CCN(Cc4ccccc4)CC3)C2=O)c1 (stereo unspecified)	0.254
O=[N+]([O-])c1ccccc1CNC1C2CC3CC(C2)CC1C3 (stereo unspecified)	0.238
CCCN(CCO)Cc1ccccc1F	0.235
O=C1CC(N2CCOCC2)C(=O)N1c1ccc(I)cc1 (stereo unspecified)	0.257
